These measurements were taken from patent US8871934B2.

Target: human PDHK2 (hPDHK2) (Homo sapiens (Human))
Test: Inhibitory action of PDHK activity in vitro (kinase reaction, residual PDH activity measured)
Format: biochemical
Conditions: read-out: PDHK inhibitory activity IC50
Readout kind: pIC50
Note: pIC50 values are expressed as the negative base-10 logarithm of concentration in M.

NC(=O)COc1cnc2c(c1)C(O)(C(F)(F)F)c1ccccc1-2 (stereo not shown) : 6.25

Endpoint output: pIC50 of CC(=O)c1cc(C(=O)N2CCC2)cc2c1-c1ccccc1C2(O)C(F)(F)F (stereo not shown) . Value?
7.31

// query: COC(=O)COC1CN(C(=O)c2ccc3c(c2)C(O)(C(F)(F)F)c2ccccc2-3)C1 (stereo not shown)
6.38

Please do the same for O=C(COc1ccc2c(c1)C(O)(C(F)(F)F)c1ccccc1-2)N1CCC1 (stereo not shown) as well.
6.31

---

Measured pIC50 accompanies every entry in the list below.
Biological target: human PDHK2 (hPDHK2) (Homo sapiens (Human))
Experiment: Inhibitory action of PDHK activity in vitro (kinase reaction, residual PDH activity measured)
Format: biochemical
Conditions: PDHK inhibitory activity, class symbol of IC50
pIC50: −log10 of the molar value.

CC(=O)c1cc(-c2cnn(CCC(=O)O)c2)cc2c1-c1ccccc1C2(O)C(F)(F)F (centres unmarked) : > 7.00
CN(CC(=O)O)C(=O)COc1ccc2c(c1)C(O)(C(F)(F)F)c1ccccc1-2 (centres unmarked) : < 6.00
CC(=O)N(C)CCOc1cnc2c(c1)C(O)(C(F)(F)F)c1ccccc1-2 (centres unmarked) : 6.00 to 7.00
Cn1cc(-c2cc(OCC(=O)O)cc3c2-c2ccccc2C3(O)C(F)(F)F)cn1 (centres unmarked) [compound 433] : 6.00 to 7.00

Which pIC50 value is on record for CN(C)C(=O)CCCOc1cc(-c2cncnc2)c2c(c1)C(O)(C(F)(F)F)c1ccccc1-2 (centres unmarked) ?
> 7.00

// repeat for OC1(C(F)(F)F)c2ccccc2-c2c(-c3nnco3)cccc21 (centres unmarked) and report
< 6.00

What do we get for COC(=O)c1cccc(-c2ccc3c(c2)C(O)(C(F)(F)F)c2ccccc2-3)c1 (centres unmarked) ?
6.00 to 7.00

Please give the result for O=C(c1cc(Cl)c2c(c1)C(O)(C(F)(F)F)c1ccccc1-2)N1CC(O)C1 (centres unmarked) too.
6.00 to 7.00

O=C1COCCN1CCOc1ccc2c(c1)C(O)(C(F)(F)F)c1ccccc1-2 (centres unmarked) , same question.
6.00 to 7.00

---

Molecular target: human PDHK2 (hPDHK2) (Homo sapiens (Human))
Experiment: Inhibitory action of PDHK activity in vitro (kinase reaction, residual PDH activity measured)
Type: biochemical
Settings: read-out: PDHK inhibitory activity IC50
Readout kind: IC50 (nM)
Provide only the numeric value, understood in nM.

CC(=O)NCCOc1ccc2c(c1)C(O)(C(F)(F)F)c1ccccc1-2 (stereo not shown) [compound 325] : 1080
NC(=O)c1cc(-c2cnn(CC3CCCCC3)c2)cc2c1-c1ccccc1C2(O)C(F)(F)F (single isomer, unassigned) [compound 667] : 15
CCN(C)C(=O)c1ccc2c(c1)C(O)(C(F)(F)F)c1ccccc1-2 (stereo not shown) [compound 51] : 2590

Then there is this compound:
Endpoint output: IC50 of CCOC(=O)N1CCN(c2ccc3c(c2)C(O)(C(F)(F)F)c2ccccc2-3)CC1 (stereo not shown) [compound 211] . Value?
1010
